- ASSAY_TARGET: mouse D2R-long form (mD2LR) (Mus musculus)
- Sequence (P61168 whole entry): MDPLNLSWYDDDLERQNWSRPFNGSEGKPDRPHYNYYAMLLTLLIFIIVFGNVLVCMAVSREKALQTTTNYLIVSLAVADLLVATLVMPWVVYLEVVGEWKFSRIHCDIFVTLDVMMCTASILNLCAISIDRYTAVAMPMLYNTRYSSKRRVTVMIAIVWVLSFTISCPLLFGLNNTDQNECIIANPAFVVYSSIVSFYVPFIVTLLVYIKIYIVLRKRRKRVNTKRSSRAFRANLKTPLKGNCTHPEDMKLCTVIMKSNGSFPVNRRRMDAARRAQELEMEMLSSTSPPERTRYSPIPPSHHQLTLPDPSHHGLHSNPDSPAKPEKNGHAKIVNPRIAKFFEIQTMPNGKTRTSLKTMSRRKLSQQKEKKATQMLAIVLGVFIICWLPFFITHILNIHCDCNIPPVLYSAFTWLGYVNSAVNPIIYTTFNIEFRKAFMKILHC
- ASSAY_NAME: cell-based
ENDPOINT_NAME: pEC50
Give bare numbers, as −log10 of the molar value.

I have this compound here, CN(C)C(=O)N[C@H]1CC[C@H](CCN2CCN(c3cccc(Cl)c3Cl)CC2)CC1 , and I need its recorded pEC50.
8.85

These entries and their values trace back to paper PMC4317219.
